- System: 485176-168-R4-J1-PDC complex spheroid growth;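 note: spheroids exposed to compounds for seven days before readout; luminescence viability expressed relative to DMSO vehicle wells set as 100%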
- run description: Anticancer human tumor 485176-168-R4-J1-PDC patient-derived pancreatic adenocarcinoma cell line growth inhibition [RAS]
- stated conditions: second compound 0.01 µM; first compound 1 µM; hits give low values
recorded endpoint: viability, T/C (%)
Give the value in % but do not write % after it.

Answered examples (6):
CC(=O)OC12COC1CC(O)C1(C)C(=O)C(O)C3=C(C)C(OC(=O)C(O)C(NC(=O)OC(C)(C)C)c4ccccc4)CC(O)(C(OC(=O)c4ccccc4)C21)C3(C)C (configuration not stated) + C=CC(=O)N1CCN(c2nc(OCC3CCCN3C)nc3c(F)c(-c4nc(N)cc(C)c4C(F)(F)F)c(Cl)cc23)C(C)C1; 11.7
CCC(CC)c1cc(NC2CCC(N)C2)n2nccc2n1 (configuration not stated) + C=CC(=O)N1CCN(c2nc(OCC3CCCN3C)nc3c(F)c(-c4nc(N)cc(C)c4C(F)(F)F)c(Cl)cc23)C(C)C1; 72.9
C=CC(=O)Nc1cc(Nc2nccc(-c3cn(C)c4ccccc34)n2)c(OC)cc1N(C)CCN(C)C + C=CC(=O)N1CCN(c2nc(OCC3CCCN3C)nc3c(F)c(-c4nc(N)cc(C)c4C(F)(F)F)c(Cl)cc23)C(C)C1; 67.8
Nc1ccn(C2OC(CO)C(O)C2(F)F)c(=O)n1 (configuration not stated) + C=CC(=O)N1CCN(c2nc(OCC3CCCN3C)nc3c(F)c(-c4nc(N)cc(C)c4C(F)(F)F)c(Cl)cc23)C(C)C1; 11.2
CCN1CCN(Cc2ccc(Nc3ncc(F)c(-c4cc(F)c5nc(C)n(C(C)C)c5c4)n3)nc2)CC1 + C=CC(=O)N1CCN(c2nc(OCC3CCCN3C)nc3c(F)c(-c4nc(N)cc(C)c4C(F)(F)F)c(Cl)cc23)C(C)C1; 77.3
NC1c2ccccc2OC12CCN(c1cnc3c(N4CCCc5ncccc54)n[nH]c3n1)CC2 (configuration not stated) + C=CC(=O)N1CCN(c2nc(OCC3CCCN3C)nc3c(F)c(-c4nc(N)cc(C)c4C(F)(F)F)c(Cl)cc23)C(C)C1; 70

As a next step, examine the compound that follows.
Cc1nc(N2CCC3(CC2)COC(C)C3N)c(CO)nc1Sc1ccnc(N)c1Cl (configuration not stated) + C=CC(=O)N1CCN(c2nc(OCC3CCCN3C)nc3c(F)c(-c4nc(N)cc(C)c4C(F)(F)F)c(Cl)cc23)C(C)C1 has a reported viability, T/C of 74.2

Hello, the source for this data is PubChem BioAssay AID2060906, in case you need it.
